Sourced from ChEMBL document CHEMBL4610061

target: UniProt:Q9BXC0; assay: Agonist activity at human GPR81 overexpressed in CHO cells assessed as inhibition of forskolin-stimulated cAMP production
Sequence (Q9BXC0 whole entry): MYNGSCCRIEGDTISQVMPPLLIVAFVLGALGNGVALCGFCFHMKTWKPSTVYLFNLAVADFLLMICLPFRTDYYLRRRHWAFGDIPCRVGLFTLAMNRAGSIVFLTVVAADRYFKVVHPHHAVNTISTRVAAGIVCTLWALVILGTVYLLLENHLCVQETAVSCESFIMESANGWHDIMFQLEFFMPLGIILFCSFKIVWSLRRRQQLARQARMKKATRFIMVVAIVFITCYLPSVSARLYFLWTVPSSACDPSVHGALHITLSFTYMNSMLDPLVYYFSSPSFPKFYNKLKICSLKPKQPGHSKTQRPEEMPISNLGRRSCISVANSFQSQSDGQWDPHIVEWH
Parameter class (string): assigned from measured EC50. Ranges: class 0 = under 200 nM, class 1 = from 200 nM up to 700 nM, class 2 = 700 nM and over

structure_smiles=CCOc1cc(Cl)c(C(=O)Nc2nc3ccc(S(=O)(=O)CCCN4CCN(C)CC4)cc3s2)cc1N1C[C@@H](C)O[C@@H](C)C1 class_assignment="class 0"
structure_smiles=CCOc1cc(Cl)c(C(=O)NC(=O)Nc2ncc(-c3ccccc3)s2)cc1N1CCOCC1 class_assignment="class 0"
structure_smiles=CN1CCC(S(=O)(=O)c2ccc3nc(NC(=O)NC(=O)c4cc(-n5cccn5)ccc4Cl)sc3c2)CC1 class_assignment="class 2"
structure_smiles=CCOc1cc(Cl)c(C(=O)NC(=O)Nc2nc3ccc(S(=O)(=O)C4CCN(C)CC4)cc3s2)cc1-n1cccn1 class_assignment="class 0"
structure_smiles=CCOc1ccc(C(=O)NC(=O)Nc2nc3ccc(CN4CCN(C)CC4)cc3s2)c(Cl)c1 class_assignment="class 1"
structure_smiles=CCOc1cc(Cl)c(-c2ncc(-c3nc4ccc(S(=O)(=O)C5CCN(C)CC5)cc4s3)c(=O)[nH]2)cc1N1CCOCC1 class_assignment="class 1"
structure_smiles=CCOc1cc(Cl)c(C(=O)Nc2nc3ccc(S(=O)(=O)CCCN4CCN(C)CC4)cc3s2)cc1N1CCO[C@H](C)C1 class_assignment="class 0"
structure_smiles=CCOc1ccc(C(=O)NC(=O)Nc2nc3ccc(CN4CCN(C)CC4)cc3s2)cc1N1CCOCC1 class_assignment="class 2"
structure_smiles=CN1CCC(S(=O)(=O)c2ccc3nc(NC(=O)NC(=O)c4cc(-n5cccn5)c(F)cc4Cl)sc3c2)CC1 class_assignment="class 2"
structure_smiles=CCOc1cc(Cl)c(C(=O)Nc2nc3ccccc3s2)cc1N1CCOCC1 class_assignment="class 2"
structure_smiles=CCOc1cc(Cl)c(CNC(=O)Nc2nc3ccc(CN4CCN(C)CC4)cc3s2)cc1N1CCOCC1 class_assignment="class 2"
structure_smiles=CCOc1cc(Cl)c(C(=O)NC(=O)Nc2nc3ccccc3s2)cc1N1CCOCC1 class_assignment="class 1"
structure_smiles=CCOc1cc(Cl)c(C(=O)Nc2nc3ccc(CN4CCN(C)CC4)cc3s2)cc1N1CCOCC1 class_assignment="class 1"
structure_smiles=CCOc1cc(Cl)c(-c2ccc(-c3nc4ccc(S(=O)(=O)C5CCN(C)CC5)cc4s3)c(=O)[nH]2)cc1N1CCOCC1 class_assignment="class 0"
structure_smiles=CCOc1cc(Cl)c(C(=O)NC(=O)Nc2ncc(C)s2)cc1N1CCOCC1 class_assignment="class 2"

---

species on record: Homo sapiens; assay: Selectivity index, ratio of IC50 for displacement of [125I]-ghrelin from human GHS-R1a stably expressed in HEK cell membrane measured after 60 mins by gamma counter method to EC50 for agonist activity at human GPR81 overexpressed in CHO cells assessed as inhibition of forskolin-stimulated cAMP production; type: cell membranes
QUANTITY: Ratio IC50/EC50

structure_smiles=CCOc1cc(Cl)c(C(=O)Nc2nc3ccc(S(=O)(=O)C4CCN(C)CC4)cc3s2)cc1N1CCOCC1 obs_value="> 80"
structure_smiles=CCOc1cc(Cl)c(C(=O)Nc2nc3ccc(S(=O)(=O)CCCN4CCN(C)CC4)cc3s2)cc1N1CCOCC1 obs_value="> 80"
structure_smiles=CCOc1cc(Cl)c(C(=O)Nc2nc3ccc(S(=O)(=O)CCCN4CCN(C)CC4)cc3s2)cc1N1C[C@@H](C)O[C@@H](C)C1 obs_value=500
structure_smiles=CCOc1cc(Cl)c(C(=O)Nc2nc3ccc(OC4CCN(C)CC4)cc3s2)cc1N1CCOCC1 obs_value="> 80"
